# melting point annotations
measured-metric: melting point

>>> assay_result("Cc1noc(NS(=O)(=O)c2ccccc2-c2ccc(-c3ncco3)cc2Cn2ccc(-c3ccccc3)n2)c1C")
"164 to 168 °C"
>>> assay_result("O=C(O)C=Cc1nn(-c2ccccc2)c2c1CCC2")
"223 °C"
>>> assay_result("CS(=O)(=O)C1Cc2cc(Cl)ccc2C1O (stereo not given)")
"163 °C"
>>> assay_result("C=Cn1cc(C(=O)O)c(=O)c2ccc(Cl)cc21")
"269 °C"
>>> assay_result("CC(=O)N(C(C)=O)c1c(C#N)cnn1-c1ccc(Cl)c(Cl)c1Cl")
"163 to 165 °C"
>>> assay_result("Cc1nnc(-c2ccc3occ(-c4ccc(OCCS(C)(=O)=O)cc4)c3c2)o1")
"132 to 133 °C"
>>> assay_result("Cc1ccc(C(c2ccc(C)cc2)C2CN(Cc3ccc(O)cc3)CCC2=O)cc1 (stereo not given)")
"156 to 157 °C"
>>> assay_result("COc1cccc2c1CC(NC(C)=O)CC2 (stereo not given)")
"156 to 157 °C"
>>> assay_result("N#Cc1cc(Cl)cc(CO)c1")
"110 to 111 °C"
>>> assay_result("NC(=O)c1cc(F)cc(-c2ccc(F)c3cc(Cc4cccc(C(F)(F)F)c4)sc23)c1")
"161 to 162 °C"
>>> assay_result("COc1ccccc1S(=O)(=O)C(C)(Cc1ccc2ncccc2c1)C(=O)NO (stereo not given)")
"206 °C"
>>> assay_result("COC(=O)N(C(S)=NC(C)C)c1c(C(C)C)cccc1C(C)C")
"98 to 99 °C"
>>> assay_result("Cc1ccc(-c2c(N)ncnc2OCCOc2ncc(Br)cn2)cc1")
"178 to 180 °C"
>>> assay_result("Cc1cc(C)c(NC(=O)NC2CC2c2ccc(-c3ncn(-c4ccc(OC(F)(F)F)cc4)n3)cc2)c(C)c1 (stereo not given)")
"254 to 256 °C"
>>> assay_result("COC=Nc1cc(-c2ncon2)nn1-c1c(Cl)cc(C(F)(F)F)cc1Cl")
"113 to 114 °C"
>>> assay_result("COc1ccc(-c2oc3cc(C)c(C)cc3c2-c2ccc(OC)cc2)cc1")
"153 °C"
>>> assay_result("OCCOCc1nn(Cc2ccccc2)c2ccccc12")
"67 to 69 °C"
>>> assay_result("Cc1cccc2c1C(NCCSCc1ccc(CN(C)C)o1)=NS2(=O)=O")
"90 to 92 °C"
>>> assay_result("CC(=O)Oc1ccc(C(=O)Nc2ncc(S(C)(=O)=O)s2)cc1")
"280 to 281 °C"
>>> assay_result("CC(C)Nc1nn(C)c(=O)c2cn(Cc3cccc4ccccc34)cc12")
"221 to 222 °C"
>>> assay_result("COc1cc2ncc(C#N)c(Nc3ccc4cn[nH]c4c3)c2cc1OC")
"180 to 183 °C"
>>> assay_result("CC(C)N(CCC(CCN(C(C)C)C(C)C)(C(N)=O)c1ccccc1C(F)(F)F)C(C)C")
"131 to 132 °C"
>>> assay_result("CCc1nc(N)nc(N)c1-c1ccc(NCc2ccccc2)c([N+](=O)[O-])c1")
"253 to 255 °C"
>>> assay_result("O=C(c1ccc(-c2ncn[nH]2)cc1)N1Cc2cccn2Cc2ccccc21")
"225 to 227 °C"
>>> assay_result("C#CCSc1ccccc1C=CCN(O)C(N)=O")
"141 to 142 °C"
>>> assay_result("Cc1nn(-c2ccc(Cl)cc2)c(=O)[nH]1")
"218 to 219 °C"
>>> assay_result("O=C(O)C=Cc1ccc(CCNS(=O)(=O)c2ccc(Cl)cc2)cc1")
"85 to 86 °C"
>>> assay_result("FS(F)(F)(F)(F)c1ccc(/C=C/c2nc(COc3ccc(-c4nc(Cn5ccnn5)co4)cc3)co2)cc1")
"172 to 174 °C"
>>> assay_result("CCN1c2ncc(Cc3cccc(O)c3)cc2C(=O)N(C)c2ccc(Cl)nc21")
"219 to 220 °C"
>>> assay_result("COc1ccc(C(=O)C=C2c3ccccc3C(=O)c3ccccc32)cc1OC")
"160 °C"
>>> assay_result("CCCCCC(CO)n1cnc(NC(=O)c2ccccc2C(=O)O)c1 (stereo not given)")
"99 to 101 °C"
>>> assay_result("O=C(Nc1ccccc1C(=O)O)c1cccc(OC(F)F)c1")
"186 to 191 °C"
>>> assay_result("Cc1nnc2n1N=C(c1ccc3c(c1)NC(=O)CO3)C(C)(C)S2")
"249 to 250 °C"
>>> assay_result("CCOC(=O)CSc1nc(Cl)cc(NCc2ccc(F)cc2)n1")
"70 to 75 °C"
>>> assay_result("Cc1oc(-c2ccccc2)nc1COc1ccc(Cn2cc(/C=C/C(=O)O)cn2)cc1")
"186 to 187 °C"
>>> assay_result("CN(C)CCN(C)C(=O)Cc1ccc(NC(=O)c2ccc(-c3ccccc3)cc2)cc1")
"135 to 136 °C"
>>> assay_result("Cc1cc(Nc2ccnc(Nc3ccc(S(=O)(=O)N(C)C4CCN(Cc5cn[nH]c5)CC4)cc3)n2)ccc1F")
"224 °C"
>>> assay_result("CCCCCCCCOc1cc(OC)cc(N)c1OCOC")
"59 °C"
>>> assay_result("OC(c1ccccc1)(c1cc2ccccc2s1)C1CCN(CCc2ccccc2)CC1 (stereo not given)")
"144 to 146 °C"
>>> assay_result("Oc1ccc(-c2ncc3ncc(-c4ccccc4O)cc3n2)cc1")
"278 to 279 °C"

---

# melting point annotations
measured-metric: melting point

>>> assay_result("CCCc1nc2c(N)nc3ccc(-c4cccc(CN)c4)cc3c2s1")
"189 to 191 °C"
>>> assay_result("CC=CCC(O)C(=O)c1ccccc1 (stereo unspecified)")
"83 to 85 °C"
>>> assay_result("Cc1nnc(NC(=O)C2=C(O)c3ccc4ccccc4c3S(=O)(=O)N2C)s1")
"252 to 255 °C"
>>> assay_result("Cc1oncc1C(=O)c1ccc(C(F)(F)F)cc1[N+](=O)[O-]")
"85 to 86 °C"
>>> assay_result("NS(=O)(=O)OCCOc1ccccc1Cl")
"84.5 to 86 °C"
>>> assay_result("CCc1[nH]c(C)c(C(C)=O)c1C")
"153 to 160 °C"

---

measured-metric: melting point

>>> assay_result("CN1CCC2(CC1)c1ccccc1Sc1c(O)cccc12")
"180 to 182 °C"
>>> assay_result("COCCCOc1cc(CBr)ccc1OC")
"50 to 51 °C"
>>> assay_result("O=C(O)c1c[nH]c2nc(NCc3ccccc3)nn2c1=O")
"240 to 245 °C"
>>> assay_result("Cc1nc(-n2ccc(O)cc2=O)sc1C(=O)NCc1ccccc1")
"240 to 243 °C"
>>> assay_result("CCCn1nc(-c2ccc(F)cc2)c(-c2ccc(S(C)(=O)=O)cc2)cc1=O")
"155 to 157 °C"
>>> assay_result("CN(C)C(=O)N1CCC(c2nn(-c3ccc(C(F)(F)F)cc3)c3ccccc23)CC1")
"117 to 119 °C"
>>> assay_result("Cn1c(CC#N)ccc1C(=O)Cl")
"78 to 80 °C"
>>> assay_result("O=C(c1c[nH]c2cc(C#Cc3ccccc3)ccc12)C1CSC(c2cccnc2)N1 (stereo unspecified)")
"103 to 107 °C"
>>> assay_result("O=C(NO)c1cccnc1Cl")
"179 °C"
>>> assay_result("O=[N+]([O-])c1sc(Nc2c(Cl)cccc2Cl)nc1Cl")
"141 °C"
>>> assay_result("CCOC(=O)C1=C(COCC2COC(C)(C)O2)NC(C)=C(C(=O)OC)C1c1cccc(Cl)c1Cl (stereo unspecified)")
"135 to 137 °C"
>>> assay_result("CN1CCN(C(=O)c2cc(N)cc(C(F)(F)F)c2)CC1")
"114 to 115 °C"
>>> assay_result("CCOCc1cc2cccc(OC)c2o/c1=N\\c1ccccc1")
"88 to 90 °C"
>>> assay_result("CN1CCN(c2cc(Cl)cc3c2c(=O)n(Cc2cccc4ccccc24)c(=O)n3Cc2ccccc2)CC1")
"75 to 89 °C"
>>> assay_result("CCOC(=O)N1CCC(Nc2nc3ccccc3n2Cc2csc(C)n2)CC1")
"160 °C"
>>> assay_result("CCc1cnc(N2CCN(C(=O)c3ccc(Nc4ncnc5ccccc45)cc3)CC2)nc1")
"248 to 249 °C"
>>> assay_result("COc1cc(-c2ccc(O)c(C3(C)CCCCC3)c2)cc(CC2SC(N3CCOCC3)=NC2=O)c1O (stereo unspecified)")
"221 to 223 °C"
>>> assay_result("C[C@@H](NC(=O)[C@H](Cc1ccc(OCc2ccccc2)cc1)NC(=O)[C@@H](N)COCc1ccccc1)C(=O)O")
"121 to 122 °C"
>>> assay_result("CC(COc1cccc2oc(C#N)cc(=O)c12)OC=O (stereo unspecified)")
"113 to 115 °C"
>>> assay_result("Clc1ccc(-c2onc3c(CBr)cccc23)cc1")
"153 to 155 °C"
>>> assay_result("CCN(CC)C(=O)Cc1cc(-c2ccccc2)nc2ccccc12")
"86 °C"
